Molecular target: human OX2R (Homo sapiens, UniProt O43614)
Construct: expressed in transfected cells; host or cells: Chinese hamster ovary (CHO) cells, kept under G418 selection
Sequence (O43614 1-444): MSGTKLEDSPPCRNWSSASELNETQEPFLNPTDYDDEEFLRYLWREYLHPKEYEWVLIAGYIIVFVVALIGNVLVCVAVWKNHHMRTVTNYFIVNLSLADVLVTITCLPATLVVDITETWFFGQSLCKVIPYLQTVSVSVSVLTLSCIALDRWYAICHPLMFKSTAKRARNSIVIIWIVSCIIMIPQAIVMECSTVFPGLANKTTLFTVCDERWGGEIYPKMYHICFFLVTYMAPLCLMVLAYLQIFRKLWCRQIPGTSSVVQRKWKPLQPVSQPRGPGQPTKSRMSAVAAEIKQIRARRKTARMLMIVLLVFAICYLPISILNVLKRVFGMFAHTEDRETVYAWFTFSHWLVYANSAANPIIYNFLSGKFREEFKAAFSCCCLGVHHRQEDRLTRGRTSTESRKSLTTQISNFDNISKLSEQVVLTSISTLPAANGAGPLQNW
Assay: IPOne (IP-One) orexin receptor agonist assay in CHO cells expressing human OX2R
Format: cell-based
Details: human OX2R; percentage of sample raw value/mean max effect (reference compound at 1 uM with 100% activity)
measured-attribute: % max agonist effect (Emax) (%)

Request: Param readout = % max agonist effect (Emax); param system = human OX2R (Homo sapiens, UniProt O43614); param query = Cc1sc(N2CC[C@H](NS(C)(=O)=O)[C@@H]2CO[C@H]2CC[C@@H](c3ccccc3)CC2)nc1O ; response: value
Result: 97.9

Request: Fill in the recorded % max agonist effect (Emax) for this compound, with human OX2R (Homo sapiens, UniProt O43614) as test system: CS(=O)(=O)N[C@H]1CCN(c2cncc(O)c2)[C@H]1CO[C@H]1CC[C@@H](c2ccccc2)CC1
Result: 101.4

Request: Query the reported % max agonist effect (Emax) for human OX2R (Homo sapiens, UniProt O43614); item: CS(=O)(=O)N[C@H]1CCN(c2ccncc2C(F)(F)F)[C@H]1CO[C@H]1CC[C@@H](c2ccccc2)CC1
Result: 96.0

Request: Give human OX2R (Homo sapiens, UniProt O43614) % max agonist effect (Emax) for Cc1nnc(N2CC[C@H](NS(C)(=O)=O)[C@@H]2CO[C@H]2CC[C@@H](c3ccccc3)CC2)o1
Result: 101.5

Request: For human OX2R (Homo sapiens, UniProt O43614), provide % max agonist effect (Emax) of CS(=O)(=O)N[C@H]1CCN(c2cc(O)c(Cl)cn2)[C@H]1CO[C@H]1CC[C@@H](c2cccc(F)c2)CC1 please.
Result: 100.9

Request: Hi! What's the reported % max agonist effect (Emax) for CS(=O)(=O)N[C@H]1CCN(c2cnccc2O)[C@H]1CO[C@H]1CC[C@@H](c2ccccc2)CC1 on human OX2R (Homo sapiens, UniProt O43614)?
Result: 101

Request: Given the entry CS(=O)(=O)N[C@H]1CCN(c2ncc(F)c(O)c2F)[C@H]1CO[C@H]1CC[C@@H](c2ccccc2)CC1 , what % max agonist effect (Emax) was observed with human OX2R (Homo sapiens, UniProt O43614)?
Result: 100.5

Data provenance: patent US12312332B2
